target: SARS-COV-2 RBD-MMH (SARS-COV-2 RBD extracellular domain with C-terminal myc-myc-hexahistidine tag) (SARS-CoV-2); assay: SPR 37C, mAb captured, pH 7.4 vs pH 6.0
READOUT LABEL: t½ Ratio of pH 7.4 to pH 6.0
Answer with a number only.

Incoming: Requested field: t½ Ratio of pH 7.4 to pH 6.0. Item: mAb14285 (antibody, V domains shown) VH: QVQLVQSGAEVKKPGASVKVSCKASGYTFTGYFIHWVRQAPGQGLEWMGWISPISGGTNYAQKFQGRVTVTRDTSITTAYMELSRLTSDDTAVYHCAREGGTWKGDFDYWGQGTLVTVSS VL: QSALTQPASVSGSPGQSITISCTGTSSDVESYNLVSWYQQHPGKAPKLMIYEGSKRPSGVSNRFSGSKSGNTASLTISGLQAEDEADYYCSSYAGSSTWVFGGGTKLTVLG
Outgoing: 0.5

Incoming: Give the measured t½ Ratio of pH 7.4 to pH 6.0 of mAb14234 (antibody, V domains shown) VH: QVQLVESGGGVVQPGRSLRLSCAASGFTFSSYGIHWVRQAPGKGLEWVAIIWYDGSEKYYADSVKGRFTISRDNSKNTLFLQMNSLEAEDTAVYYCARGPDLLTGYYNYFYYGMDVWGQGTTVTVSS VL: QSVLTQPPSVSGAPGQRVTISCTGSSSNIGIGYDVHWYQQLPGTVPKLLIYGNTNRPSGVPDRFSGSKSGTSASLAITGLQAEDEADYYCQSYDSSLSSYVFGTGTKVTVLG .
Outgoing: 0.6

Incoming: Could you share which t½ Ratio of pH 7.4 to pH 6.0 value was measured for mAb15157 (antibody, V domains shown) VH: EVQLVESGGALVQPGGSLRLSCAASGFPFTIYAMTWVRQAPGKGLEWVSVITGSGDSTYYADSVKGRFTISRDNSKNTLYLQMNSLRAEDTAVYYCVKTGEGFFYYYYGMDVWGQGTTVTVSS VL: QSVLTQPPSVSAAPGQKVTISCSGSSSNIGNSYISWYQQLPGTAPKLLIYVNNKRPSGIPDRFSGSKSGTSATLGITGLQTGDEADYYCGTWDSSLSAGVFGSGTKVTVLG ?
Outgoing: 1.9

Incoming: I would be grateful if you could share the reported t½ Ratio of pH 7.4 to pH 6.0 for mAb14289 (antibody, V domains shown) VH: QVQLVQSGPEVKKPGASVKVSCKASGYTFTSYAISWVRQAPGQGLEWMGWISAYNGNTNYAQKLQGRVTMTTDTFTSTAYMELRSLRSDDTAVYYCAVPADHITFDYWGQGTLVTVSS VL: EIVLTQSPGTLSLSPGERATLSCRASQSVSSYLAWYQQKPGQAPRLLIHGASSRATGIPDRFSGSGSGTDFTLTISRLEPEDFAVYYCQQYGSSFLTFGGGTKVEIKR .
Outgoing: 1.5

Incoming: t½ Ratio of pH 7.4 to pH 6.0 lookup needed for mAb15158 (antibody, V domains shown) VH: EVQLVESGGGLVQPGGSLRLSCAASGFSFSSNWMSWVRQAPGKGLEWVGNINQDGSEKYYVDSVEGRFTISRDNAKKSLYLQMNSLRAEDTAVYYCARDLGVLWFGDFVDWGQGALVTVSS VL: DIQMTQSPSSLSASVGDRVTITCRASQAISNSLAWYQQKPGKAPKLLLYAASTLESGVPSRFSGSGSGTDYTLTISSLQPEDFATYYCLQYYGSPRTFGQGTKVEIKR , thanks.
Outgoing: 0.9
